System: THRa homodimer (NR concentration 90 nM)
Test Description: PBM binding z-score (relative to random genomic background probes); higher = stronger binding; sequences stand for … in GC…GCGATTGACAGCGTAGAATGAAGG
Quantity Measured: PBM binding z-score
Number, no unit, nothing else.

Solved cases below.
> print(dat)
                        item.sequence  numeric.result
1  TAGCCTAGGTCATGCGGGCCAGTATCGTGTCGGC            1.17
2  CCGACTGGGGCAAAGGTTGCCATACTCAGTACGA           -0.54
3  CCTAGTTGGTCCGGAGGTCACACACCGGATATGA            2.86
4  ACTATTAGTTGACTTAGGGAAACCGATACGACGC           0.155
5  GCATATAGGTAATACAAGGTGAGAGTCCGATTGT           0.807

Ask: # query: PBM binding z-score of entry GCTAGCACGCCATTTGGGTCACTCAATGACGGGC
Result: 0.413

Ask: Follow-up entry: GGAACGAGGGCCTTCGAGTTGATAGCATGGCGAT
Result: -1.24

Ask: Would you kindly repeat that for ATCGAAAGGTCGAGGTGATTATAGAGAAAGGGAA ?
Result: 0.338

Ask: Also check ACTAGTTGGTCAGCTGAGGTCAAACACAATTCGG
Result: 4.87

###

System: VDR homodimer (NR concentration 270 nM)
Test Description: PBM binding z-score (relative to random genomic background probes); higher = stronger binding; sequences stand for … in GC…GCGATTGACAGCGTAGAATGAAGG
Quantity Measured: PBM binding z-score
Kindly provide the number alone.

As a guide, the following entries are already answered.
> print(dat)
                        item.sequence    quantity.measured  numeric.result
1  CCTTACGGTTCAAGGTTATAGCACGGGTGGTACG  PBM binding z-score            3.31
2  CGTCCAAGGTCGTAGGAGGTCAGTGAAGACAGAT  PBM binding z-score            2.85
3  GTACCAAGGTGAATAGGTCGTGGATGAGTAGGCG  PBM binding z-score         -0.0897

Ask: Quick check: PBM binding z-score of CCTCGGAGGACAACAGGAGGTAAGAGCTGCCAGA ?
Result: -0.145

###

System: RARb homodimer (NR concentration 270 nM)
Test Description: PBM binding z-score (relative to random genomic background probes); higher = stronger binding; sequences stand for … in GC…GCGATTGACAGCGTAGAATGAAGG
Use criterion met when the recorded PBM binding z-score is no lower than 2; use criterion not met when it is lower.

> print(dat)
                        item.sequence    label.value
1  AGTCAAGGTTCATCTAGGTAACGTAAGATATGCT  criterion met
2  CCTACTGGGCCAAAGGTCATTCATTCCAATGCTC  criterion met
3  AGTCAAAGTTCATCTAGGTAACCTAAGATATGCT  criterion met

Ask: Dear colleague, could you confirm whether GCAGACAGGTAAAACGCAGGTAACTCAGGGTGGC has PBM binding z-score at or above 2?
Result: criterion not met

Ask: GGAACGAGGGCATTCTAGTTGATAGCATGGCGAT , same question.
Result: criterion not met

###

Test system: RARa:RXR (NR concentration 270 nM, RXRa partner concentration 90 nM)
Test Description: PBM binding z-score (relative to random genomic background probes); higher = stronger binding; sequences stand for … in GC…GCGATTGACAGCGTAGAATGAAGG
Quick list: PBM binding z-score per entry.
The answer should be a number; do not append a unit.

Worked examples, 4 sequences total:
> print(dat)
                        item.sequence    quantity.measured  numeric.result
1  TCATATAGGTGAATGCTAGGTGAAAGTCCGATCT  PBM binding z-score            1.33
2  TCTAGTTGGTCACGGAGGTCATACACGACGGGTA  PBM binding z-score            4.38
3  CCTACCGGGCCATCAGGTCATTGATATCAACGTT  PBM binding z-score            1.95
4  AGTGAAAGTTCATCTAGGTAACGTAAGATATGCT  PBM binding z-score            3.24

Ask: Look up PBM binding z-score: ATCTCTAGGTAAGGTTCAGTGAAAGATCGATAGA
Result: 1.21

Ask: Then what about the sequence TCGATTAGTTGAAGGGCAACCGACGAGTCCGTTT ?
Result: 0.128

Ask: Param item: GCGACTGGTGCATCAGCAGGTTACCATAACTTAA
Result: -0.046

###

System: PPARg DBDmut:RXRa IVT, anti-PPARg (DBD mutation: PPARg1 K132A/R137A, NR concentration 270 nM, RXRa partner concentration 90 nM)
Test Description: PBM binding z-score (relative to random genomic background probes); higher = stronger binding; sequences stand for … in GC…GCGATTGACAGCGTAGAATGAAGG
Quantity Measured: PBM binding z-score
Give your answer as a number; write no unit.

Some solved cases for reference:
> print(dat)
                         item.sequence  numeric.result
 1  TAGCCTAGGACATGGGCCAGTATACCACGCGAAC          -0.263
 2  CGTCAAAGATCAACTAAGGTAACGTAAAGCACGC             0.6
 3  TCTATTAGTTGACTAGGGCAACCGAAACAGCGGA            0.37
 4  AGAACTAGGGCAATGAGTTGATAGCACGGGTGGC            1.02
 5  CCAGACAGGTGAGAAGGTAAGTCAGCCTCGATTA           -1.11
 6  CAAACTAGTTCACCGGAAGGTCAAAGTCCGCATG           0.634
 7  CTCGAAAGGTCGTGCTCACGTGAGTATACCAAAC           0.551
 8  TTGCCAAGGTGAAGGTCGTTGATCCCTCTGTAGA           -1.04
 9  CTCCAAAGGTCGTGCTCAGGTGAGTATACCAAAC         -0.0777
10  TCTAGTTGGGCACGGAGGTCACACACGACGGGTA            1.02

Ask: Fill in: PBM binding z-score of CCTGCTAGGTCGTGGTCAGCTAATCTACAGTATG is ___
Result: -0.546

###

Tested on: LXRb:RXRa (NR concentration 270 nM, RXRa partner concentration 90 nM)
Test Description: PBM binding z-score (relative to random genomic background probes); higher = stronger binding; sequences stand for … in GC…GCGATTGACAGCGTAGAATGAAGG
Hi all, reminder that labels come from PBM binding z-score, split as 1: < 0.3; 2: ≥ 0.3 and < 2; 3: ≥ 2

> print(dat)
                        item.sequence  label.value
1  GCTTACGGGTCAAAGATTATAGCATGAATAGAAT            3
2  GGAACGAGGGCAAGTTGATAGAAGAGTTTGATGG            1
3  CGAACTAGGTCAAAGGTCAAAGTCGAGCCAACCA            3

Ask: Hello team, could you let me know which band the following sequence falls into: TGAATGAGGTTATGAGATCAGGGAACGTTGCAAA
Result: 2

Ask: Same read-out for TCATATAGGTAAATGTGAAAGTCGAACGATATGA ?
Result: 2

Ask: Here is the next sequence: ACTATTAGTTGAGACGAGGGCAAACGATAGGTTG
Result: 1

Ask: Would you mind doing TCTTGTAGATCTACAGGAGGTTAAGAAAGATCGA as well?
Result: 2

Ask: CGTCCAAGGTTATAGGAGGTCAGTGAAGACAGAT , same question.
Result: 3

###

The entries below are paired with their reported PBM binding z-score.
System: LXRa:RXRa (NR concentration 270 nM, RXRa partner concentration 90 nM)
Test Description: PBM binding z-score (relative to random genomic background probes); higher = stronger binding; sequences stand for … in GC…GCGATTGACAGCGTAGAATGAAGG
The reply should be a number, written without any unit.

> print(dat)
                        item.sequence    quantity.measured  numeric.result
1  ATCTCTAGGTAAAAATTCAGTGAATCCCGAGGAT  PBM binding z-score          -0.215
2  AAAACGAGGGCAATGAGTTGATAGCACGGGTGGC  PBM binding z-score           0.364
3  TCTTGTAGATCAGAAGGTTAAGAAAGCTGGCCAA  PBM binding z-score            1.02
4  TGTCAAAATTCAAAGGTAACGTAAGTATCCACAC  PBM binding z-score           0.663
5  TCTGCTAGGTCAACGAGGGTCAGCTAATCTGCTA  PBM binding z-score            4.83
6  ATAGAAAGGTCGAGGTGAGTATAGAGAAAGGGAA  PBM binding z-score            3.22

Please turn your attention to the following entry.
Ask: Give LXRa:RXRa (NR concentration 270 nM, RXRa partner concentration 90 nM) PBM binding z-score for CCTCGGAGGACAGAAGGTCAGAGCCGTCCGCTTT
Result: 1.72
